- test: % transmission spectrum of 0.1% solution (breakthrough, steepness)
- Assay type: physicochemical
- condition.set: distance in nm over which transmittance increases from 1 to 80%
- Source text: FIG. 2 is a is a graphical representation of the % transmission of compounds 142 and 143 measured in a 2 mm cuvette as 0.1% solutions in methanol (142 is the left most trace); […]
Friendly reminder: Steepness below 20 nm is Criterion met, at or above is Criterion not met.

Check out these entries, answers already filled in.
>>> df
                                   compound     assigned_class
0  CN(C)/C=C(/C(=O)c1ccccc1)c1ccccc1 [Compound 240]  Criterion not met
1  COC(=O)c1ccc2c(c1)CCN2C=C(C(=O)C(C)(C)C)c1ccc(C)cc1 [Compound 295]      Criterion met
2  COC(=O)c1ccc2c(c1)CCN2/C=C(/C(=O)C(=O)N1CCc2ccccc21)c1ccccc1 [Compound 305]  Criterion not met
3  CCCCN(/C=C(/C(=O)C(F)(F)F)c1ccccc1)c1ccccc1 [Compound 234]  Criterion not met
4  O=C(/C(=C\N1CCc2cc(C(F)(F)F)ccc21)c1ccccc1)C(F)(F)F [Compound 235]      Criterion met

input: Quick check: does COC(=O)c1ccc2c(c1)CCN2C=C(C(=O)C(C)(C)C)c1ccc(C(C)(C)C)cc1 [Compound 296] have Steepness under 20 nm?
output: Criterion met

input: Identify whether the compound COC(=O)c1ccc2c(c1)CCN2/C=C(/C(=O)C(C)(C)C)c1ccccc1 [Compound 283] records Steepness below 20 nm.
output: Criterion met

input: API: query returns whether the compound falls strictly under 20 nm in Steepness. Query: CCN(/C=C(\C(=O)C(F)(F)F)c1ccccc1)CC [Compound 144]
output: Criterion not met

input: Steepness strictly < 20 nm for this compound? CCOC(=O)C(=O)/C(=C/N(CC)CC)c1ccccc1 [Compound 260]
output: Criterion not met

Recorded values, source patent US11512042B2.
